# System: PPARg:RXRa DBDmut IVT, anti-RXR (DBD mutation: RXRa K156A/R161A, NR concentration 270 nM, RXRa partner concentration 90 nM)
# assay.method.text: PBM binding z-score (relative to random genomic background probes); higher = stronger binding; sequences stand for … in GC…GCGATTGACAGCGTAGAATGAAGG
# if value of PBM binding z-score reaches 4, tag satisfied; if it stays below, tag not satisfied

Answered examples (5):
TCTAGTTGGTCAAAGGTCACACCCTCGAAATGCG : not satisfied
AGAATGAGGTTATACGGAGATCAGGGAAGAAAGT : not satisfied
CAAACTAGGTCAAAGGTCGAAGTCGAGCCAACCA : satisfied
TCTCGGAGGACACGAAAGGTCGGAGCTCGACATC : not satisfied
CCTACTGGTCCACGAAAGGTCATTGATTCAGTGA : not satisfied

Query sequence follows.
IN: Reported PBM binding z-score reaches at least 4 for `TCTTGTAGATCAAGCAGGTGAAGAAAGCCTGAGT` ?
OUT: not satisfied
